Molecular target: T1, RBFOX1 RRM (Homo sapiens, UniProt Q9NWB1 109-208)
T1 sequence: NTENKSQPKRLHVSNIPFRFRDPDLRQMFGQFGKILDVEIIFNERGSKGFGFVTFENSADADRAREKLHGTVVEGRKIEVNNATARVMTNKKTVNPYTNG
Assay: EMSA; HiTS-Eq, 1 nM pool, 10 min; buffer printed only for the single-RNA assays: 10 mM Tris pH 7.5, 150 mM NaCl, 3.4 mM EDTA, 0.001% NP-40, 30 C
Conditions: tags: His6 N-terminal (pET28a); label: 5' 32P
Whole data set: some 16,000 sequences, median “ka relative to ugcaugu” near 0.0091, cut for the highest 2% near 0.032. What follows is part of a selection rich in the highest values, with near analogues and random picks from the rest.
The binders listed here are annotated with their binding signal.
readout: binding signal

{"binder": "GCCUGCG (DNA:RNA) RNA: GGGAGACCGGAAUUCAGAUUGUCCGCCUGCGUUAAAUCCCGUCGUAGCCACCA DNA 1: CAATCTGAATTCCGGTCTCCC DNA 2: TGGTGGCTACGACGGGATT", "readout": "binding signal", "experimentalValue": "0.0321 KA relative to UGCAUGU"}
{"binder": "UCACUCG (DNA:RNA) RNA: GGGAGACCGGAAUUCAGAUUGUCCUCACUCGUUAAAUCCCGUCGUAGCCACCA DNA 1: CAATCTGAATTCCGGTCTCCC DNA 2: TGGTGGCTACGACGGGATT", "readout": "binding signal", "experimentalValue": "0.00518 KA relative to UGCAUGU"}
{"binder": "ACCUGCA (DNA:RNA) RNA: GGGAGACCGGAAUUCAGAUUGUCCACCUGCAUUAAAUCCCGUCGUAGCCACCA DNA 1: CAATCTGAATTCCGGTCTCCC DNA 2: TGGTGGCTACGACGGGATT", "readout": "binding signal", "experimentalValue": "0.0144 KA relative to UGCAUGU"}
{"binder": "GCCUGCC (DNA:RNA) RNA: GGGAGACCGGAAUUCAGAUUGUCCGCCUGCCUUAAAUCCCGUCGUAGCCACCA DNA 1: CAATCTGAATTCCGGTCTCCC DNA 2: TGGTGGCTACGACGGGATT", "readout": "binding signal", "experimentalValue": "0.0261 KA relative to UGCAUGU"}
{"binder": "AACACAA (DNA:RNA) RNA: GGGAGACCGGAAUUCAGAUUGUCCAACACAAUUAAAUCCCGUCGUAGCCACCA DNA 1: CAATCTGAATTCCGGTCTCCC DNA 2: TGGTGGCTACGACGGGATT", "readout": "binding signal", "experimentalValue": "0.00155 KA relative to UGCAUGU"}
{"binder": "GCCUGCA (DNA:RNA) RNA: GGGAGACCGGAAUUCAGAUUGUCCGCCUGCAUUAAAUCCCGUCGUAGCCACCA DNA 1: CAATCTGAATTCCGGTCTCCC DNA 2: TGGTGGCTACGACGGGATT", "readout": "binding signal", "experimentalValue": "0.0378 KA relative to UGCAUGU"}
{"binder": "CAUGAAC (DNA:RNA) RNA: GGGAGACCGGAAUUCAGAUUGUCCCAUGAACUUAAAUCCCGUCGUAGCCACCA DNA 1: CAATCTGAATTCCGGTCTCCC DNA 2: TGGTGGCTACGACGGGATT", "readout": "binding signal", "experimentalValue": "0.00509 KA relative to UGCAUGU"}
{"binder": "GUCCGCC (DNA:RNA) RNA: GGGAGACCGGAAUUCAGAUUGUCCGUCCGCCUUAAAUCCCGUCGUAGCCACCA DNA 1: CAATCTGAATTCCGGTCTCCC DNA 2: TGGTGGCTACGACGGGATT", "readout": "binding signal", "experimentalValue": "0.0105 KA relative to UGCAUGU"}
{"binder": "UGAGCUA (DNA:RNA) RNA: GGGAGACCGGAAUUCAGAUUGUCCUGAGCUAUUAAAUCCCGUCGUAGCCACCA DNA 1: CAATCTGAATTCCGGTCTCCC DNA 2: TGGTGGCTACGACGGGATT", "readout": "binding signal", "experimentalValue": "0.015 KA relative to UGCAUGU"}
